Values were extracted from ChEMBL document CHEMBL1146775.

Give Relaxation for every item shown.
Experiment: Maximal rate of vascular endothelium-dependent relaxation at the concentration of 10E-5 M/L
Conditions: Oryctolagus cuniculus

Endpoint output: Relaxation of CCOP(=O)(OCC)C(c1cc(Cl)cc(Cl)c1O)N1CCN(c2ccccn2)CC1 (stereo not given) . Value?
> 50%

Endpoint output: Relaxation of CCOP(=O)(OCC)C(c1ccc(O)c(OC)c1)N1CCN(c2ccccn2)CC1.Cl (stereo not given) . Value?
> 50%

Endpoint output: Relaxation of CCOP(=O)(OCC)C(c1cc(OC)c(O)c(OC)c1)N1CCN(c2ccccn2)CC1.Cl (stereo not given) . Value?
> 50%

Endpoint output: Relaxation of COc1cc(C(C#N)N2CCN(C)CC2)cc(OC)c1OC (stereo not given) . Value?
> 50%

---
Endpoint output: Relaxation of COc1cc(C(C#N)N2CCN(C)CC2)c([N+](=O)[O-])cc1OC (stereo not given) . Value?
> 50%
